Below, each of the molecules is paired with its reported pIC50 value.
Target: Inosine-5'-monophosphate dehydrogenase 2 (Homo sapiens, UniProt P12268)
Schema: pIC50 number; meaning minus log10 of the concentration expressed in molar units.

> print(dat)
                                     smiles  value.type  value.observed
1  Cn1cc(C#N)c2ccc(Nc3ncc(-c4cccc(NC(=O)c5ccccc5)c4)o3)cc21       pIC50            6.70
2  Cn1cc(C#N)c2ccc(Nc3ncc(-c4cccc(CN)c4)o3)cc21       pIC50            6.74
3  COc1cc(NC(=O)Nc2cccc(CNC(=O)O[C@H]3CCOC3)c2)ccc1-c1cnco1       pIC50            7.96

Next:
## Task Enter pIC50 (test system Inosine-5'-monophosphate dehydrogenase 2 (Homo sapiens, UniProt P12268)) for "CC(=O)NCc1ccc(-c2cnc(Nc3ccc4c(C#N)cn(C)c4c3)o2)cc1"
## Result 7.03
